Data provenance is the PETadex activity labels (doi:10.1002/cssc.202101062).

Attribute: Proxy for plastic degradation
# Substrate: PET
# testProtocol: Proxy for plastic degradation [Weight/mass loss]
# recordedConditions: pH 8; 50 °C
# value in %; strip the unit string

unnamed (protein) MDNPYERGPDPTTQSVEAARGPYAVSQITVGGQFGSYSGGTIYYPTSTTDGKFGAVAIAPGFLSFQSSVAWLGPRIASQGFVVMTIDTGTIFDQPAQRGDQLLDALDFLTQRSSVKDRIDPNRLAVAGWSMGGGGSLEAAADRPSLKAAIPMAGWNLNTNWSRLTTPVLVVGVQNDLIAPVAMHSEPFYNSIRSEKAYLELAGGSHFTVTSANTPQAKLMISWLKRFVDNDTRYEQFICPGPSRGFSVSEYRSTCPF : 3
unnamed (protein) MDNPYERGPDPTTQSVEAARGPYAVSQITVGGQFGSYSGGTIYYPTSTADGKFGAVAIAPGFLSFQSSVAWLGPRLASQGFVVMTIDTGTIFDQPAQRGDQLLDALDFLTQRSSVKDRIDPNRLAVAGWSMGGGGSLEAAADRPSLKAAIPMAGWNLNTNWSRLTTPVLVVGVQNDLIAPVGSHSEPFYNSIRSEKAYLELAGGSHFTVTSANTPQAKLMISWLKRFVDNDTRYEQFICPGPSRGFSVSEYRSTCPF : 1.5
unnamed (protein) MENPYERGPDPTTQSVEAARGPYAVSQITVGGQFGSYSGGTIYYPTSTADGKFGAVAIAPGFLSFQSSVAWLGPRIASQGFVVMTIDTGTIFDQPAQRGDQLLDALDFLTQRSSVKDRIDPNRLAVAGWSWGGGGSLEAAADRPSLKAAIPMAGWNLNTNWSRLTTPVLVVGVQNDLIAPVAMHSEPFYNSIRSEKAYLELAGGSHFTVTSANTPQAKLMISWLKRFVDNDTRYEQFICPGPSRGFSVSEYRSTCPY : 1

-- ask Provide one value: measured Proxy for plastic degradation of unnamed (protein) MANPYERGPAPTTSSIEASRGPFAIASVTVSRSSVSGFGGGTIYYPRDTSEGTFGAVAIAPGFTADEGSMAWYGPRIASQGFVVFTIDTITRLDQPDSRGRQLLAALDYLTQRSSVRSRIDSSRLAVMGHSMGGGGSLEASVSRPSLKAAIPLTPWNLKKNWRDVRVPTLIVGAESDSIASVRTHAEPFYESIPSTTNKAYLELNNATHFAPNISNTTIAKYSISWLKRFVDNDTRYEQFLCPPPRPDRDIEEYRSTCPH
-- reply 2.5

-- ask Provide one value: measured Proxy for plastic degradation of unnamed (protein) MANPYERGPDPTVQSIEAVRGPFSVSETNVSRLVVTGFGGGTIYYPRDTSQGTFGAVAIAPGFTASEGSMAWYGPRIASQGFVVFTIDTLTRLDQPDSRGRQLLAALDYLTQRSSVRSRIDSSRLAVMGHSMGGGGSLEASESRPSLKASIPLTPWNLKKNWRNNRVPTLIVGAENDSIASVRTHAEPFYESIPSTTNKAYLELNNATHFAPNISNTTIAKYSISWLKRFVDNDTRYEQFLCPPPRPDRDIEEYRCTCPY
-- reply 2.5

-- ask Provide one value: measured Proxy for plastic degradation of unnamed (protein) MANPYERGPNPTDALLEARSGPFSVSEENVSRLSASGFGGGTIYYPRENNTYGAVAISPGYTGTEASIAWLGERIASHGFVVITIDTITTLDQPDSRAEQLNAALNHMINRASSTVRSRIDSSRLAVMGHSMGGGGSLRLASQRPDLKAAIPLTPWHLNKNWSSVRVPTLIIGADLDTIAPVLTHARPFYNSLPTSISKAYLELDGATHFAPNIPNKIIGKYSVAWLKRFVDNDTRYTQFLCPGPRDGLFGEVEEYRSTCPF
-- reply 1
